# assayed target: T1, hRAGE-Fc (human (by the label hRAGE), UniProt Q15109 23-344, limits assumed)
# T1 construct: Control antigen
# T1 sequence (Q15109 23-344 limits assumed): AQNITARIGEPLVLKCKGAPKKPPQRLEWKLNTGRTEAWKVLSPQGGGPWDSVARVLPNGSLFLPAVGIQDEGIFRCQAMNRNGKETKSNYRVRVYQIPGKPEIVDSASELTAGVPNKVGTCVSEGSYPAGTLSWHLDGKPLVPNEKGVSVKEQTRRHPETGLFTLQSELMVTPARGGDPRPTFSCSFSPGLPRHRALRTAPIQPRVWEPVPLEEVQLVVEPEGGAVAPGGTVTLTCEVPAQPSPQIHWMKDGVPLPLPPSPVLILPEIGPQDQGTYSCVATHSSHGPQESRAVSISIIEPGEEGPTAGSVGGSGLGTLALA
# method summary: mono scFv-phage ELISA on coated antigen, single point (Example 2)
measured metric: binding result

# binder, measured metric, measured value
records = [
    ("Anti-FAM19A1 3A8 mono scFv-phage clone (scFv, V domains shown) VH: QVQLQQSGPGLVKPSETLSLICSVSGDAITSGSYYWGWIRQSPGRGLEWIGEISHSGSTDYNPSLKSRVTISVDKSRNQFSLRLNSVTAVDTAVYYCAGDTALVGAYSIWGQGTMVTVSS VL: SYELTQAPSLSVSPGQTANIICSGDNLRTKYVSWYQQKPGQSPLLVIYQDTRRPSGIPARFSGSNSGNTATLTISGTQTRDESTYYCMTWDVDTTSMIFGGGTKLTVL", "binding result", "no binding"),
    ("Anti-FAM19A1 2G7 mono scFv-phage clone (scFv, V domains shown) VH: QVQLVESGGGLVKPGRSLSLSCTTSGFPFGDHAINWVRQAPGKGLEWVGFIRSNTYGGTTQYAASVEGRFTISRDDSKSIAYLQMNSLRAEDTAVYYCTKDITGGGFWSDYGDYFDAFDFWGQGTMVTVSS VL: SYELTQPLSVSVSPGQTASISCSGDKLGYKYASWYQQKPGQSPVVVIYQDKKRPSGIPERFSGSNSGNTATLTISGTQPMDEADYYCQAWDSGTASHVFGTGTKVTVL", "binding result", "no binding"),
    ("Anti-FAM19A1 1C1 mono scFv-phage clone (scFv, V domains shown) VH: QVQLVESGGGVAQPGRSLRLSCAASGFAFSDYGIHWVRQAPGKGLEWVALISYDGSKRSYADSVKGRFAISRDNSKNTLYLQMNSLRAEDTAVYYCARPGDYALAFDLWGQGTMVTVSS VL: QTVVTQEPSFSVSPGETVTLTCGLSSGSVSTSHFPSWYRQTPGQAPRPLIDSRNARSIGVPDRFSGSIVGTKATLTISGAQAEDECNYYCALYMGRGNWVFGGGTKLTVL", "binding result", "no binding"),
]

All values here come from patent US20230104540A1.
